Data credit: patent US20070059799A1

# targetSystem: HLA-A*3101 (human)
# test: competition with 125I-labelled probe peptide for purified HLA, gel filtration
# measurementConditions: remark: other sources report otherwise
Task for the reader: assign each of the following binders its reported IC50.
Write it as a number; the unit nM goes unstated.

Tell me the measured IC50 of KVFVLGGCR (modifications not checked) [peptide 1.0993 (HBV X 130, …)] , please. 30

State the recorded IC50 for this entry: AFTFSPTYK (modifications not checked) [peptide 20.0130 (HBV pol 655, …)] 3100

# query: IC50 of entry SSAGPCALR (modifications not checked) [peptide 26.0153 (HBV X 64, …)] 55

If you can, please state the reported IC50 value of FVLGGCRHK (modifications not checked) [peptide 1.0219 (HBV X 1550, …)] . 1500
